Test: NOD1 signaling inhibitors, primary screen, cell-based, luminescence, uHTS (AID 1578);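 further: HEK-293T reporter cells stimulated with the NOD1 agonist gamma-tri-DAP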
Details: NOD1-driven NF-kB luciferase reporter cells, at 4 µM, active compounds read high
Among all 290,000 compounds or so, about 3,000 (1%) were called active. The list comes from a sample in which actives are over-represented; it also holds close analogues and randomly drawn compounds.
measurement.label: inhibition (%)
Numeric answer only, unit % assumed.

Example entries and their recorded answers appear below.
>>> measured_value("N#CCSc1n[nH]c2nc3c(c(=O)n12)C1(CCCCC1)Cc1ccccc1-3")
48
>>> measured_value("CCSc1n[nH]c2nc3c(c(=O)n12)C1(CCCCC1)Cc1ccccc1-3")
-13.1
>>> measured_value("Cc1nonc1NC(=O)CSc1ccccn1")
4

Here is another compound to look at.
q: Requested read-out: inhibition. Entry: CN1CCN(C(=O)N2CCNC2=O)CC1
a: -22
